test: Selectivity index, ratio of cytotoxicity for MDCK cells to EC50 for Influenza A virus A/PR/8/34 (H1N1) neuraminidase activity; format: toxicity, cell-based; conditions: dog, read-out: Selectivity Index
measurement-label: selectivity ratio
Just the number, please, no unit attached.

Examples from the recorded data:
> print(dat)
                                   compound  measurement.label  value.measured
1  COc1c(O)cc([C@@H]2CC(=O)c3c(O)c(C)c(O[C@@H]4O[C@H](CO)[C@@H](O)[C@H](O)[C@H]4O)c(C)c3O2)cc1O  selectivity ratio            34.4
2  COc1c(O)cc(C2CC(=O)c3c(O)c(C)c(O)c(C)c3O2)cc1O (stereo not drawn)  selectivity ratio             3.1

Proceeding to the next compound to report its selectivity ratio.
[in] Provide selectivity ratio value for the following compound: O=c1c(O[C@@H]2O[C@H](CO)[C@@H](O)[C@H](O)[C@H]2O)c(-c2ccc(O)cc2)oc2cc(O)cc(O)c12 [ASTRAGALIN]
[out] 12.4
